target or test system: P2X7R (Mus musculus)
Construct: plated for 24 h before dye uptake assays, whole-cell patch clamp experiments, and IL-1β release assays; endogenous in cells
Sequence (Q9Z1M0 whole entry): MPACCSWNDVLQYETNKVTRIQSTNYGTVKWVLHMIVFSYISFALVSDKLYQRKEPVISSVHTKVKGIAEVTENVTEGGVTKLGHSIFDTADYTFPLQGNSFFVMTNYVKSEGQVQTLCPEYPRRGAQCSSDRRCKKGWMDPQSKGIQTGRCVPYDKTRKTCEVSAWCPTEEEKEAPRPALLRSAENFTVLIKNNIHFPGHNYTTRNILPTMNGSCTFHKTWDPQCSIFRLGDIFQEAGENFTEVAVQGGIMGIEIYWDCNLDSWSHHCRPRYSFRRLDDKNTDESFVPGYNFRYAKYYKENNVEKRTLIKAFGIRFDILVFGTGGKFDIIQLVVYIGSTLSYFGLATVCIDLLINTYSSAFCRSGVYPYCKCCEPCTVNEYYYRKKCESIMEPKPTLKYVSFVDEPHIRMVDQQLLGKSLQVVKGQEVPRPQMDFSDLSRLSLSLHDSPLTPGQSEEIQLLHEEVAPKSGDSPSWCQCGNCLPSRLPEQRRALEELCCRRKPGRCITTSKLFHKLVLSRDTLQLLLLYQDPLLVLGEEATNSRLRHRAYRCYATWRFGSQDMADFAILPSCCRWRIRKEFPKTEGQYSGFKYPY
assay procedure: Dye uptake assay (propidium iodide) in mouse peritoneal macrophages
condition set: propidium uptake assay; mice peritoneal macrophages; mean ± SD
measured metric: IC50 (nM)

a. N#Cc1cnn(-c2nnc(-c3ccc(F)cc3)s2)c1N
b. CCOC(=O)c1cnn(-c2nnc(-c3ccccc3Cl)s2)c1N
c. CCOc1ccc(Nc2ccc(/C(=C3C=C/C(=[N+](/CC)Cc4cccc(S(=O)(=O)[O-])c4)C=C/3C)c3ccc(N(CC)Cc4cccc(S(=O)(=O)O)c4)cc3C)cc2)cc1 [BBG, Brilliant Blue G, reference compound]
Sort (3 compounds) by IC50: min first. In your reply, arrange the labels in the requested order. b, a, c
